experiment: Cytotoxicity CC50, Huh-7
Assay type: cell-based
particulars: human, Huh-7 cells (hepatoma cell line)
Consider the following compounds; for each one, report its CC50.

Entry under review: CCN(CCN(C)C)C(=O)CNCc1cc(C(=O)O)ccn1 [GS-080] . Reported CC50?
> 44 µM

Repeat for the following compound: COc1ccc(C[C@H](N)C(=O)N[C@H]2[C@@H](O)[C@H](n3cnc4c(N(C)C)ncnc43)O[C@@H]2CO)cc1 [Puromycin, reference compound]
0.67 µM

Now give it for CCOC(=O)c1ccnc(CNCC(=O)N(CC)CCN(C)C)c1 [GS-5801] too.
> 44 µM

====

Assignment: determine reported EC50 for the given compounds.
Test system: HBV
experiment: Intracellular HBV RNA (vRNA) by qRT-PCR in HBV-infected PHH
Assay type: cell-based
particulars: Hepatitis B virus, read-out: vRNA EC50, PHH donor Hu4167; HBV GTD; treated every three to four days for 14 days

Can you share its EC50? I mean this compound: CCOC(=O)c1cc(CNCC(=O)N(CC)CCN(C)C)ncc1Br [GS-420]
> 10000 nM

Another: CCOC(=O)c1ccnc(CNCC(=O)N(CC)CCN(C)C)c1 [GS-5801]
47 nM
